Values were extracted from ChEMBL document CHEMBL3271937.

experiment: Octanol-water partition coefficient, log P of the compound; assay type: physicochemical
# logP annotations
Observation type: logP

>>> df
                            compound_smiles  value_measured
0  CCNc1ncc2ccccc2c1-c1ccc(NC(=O)CCN(CCCl)CCCl)cc1.Cl            7.43
1             Nc1ccc(-c2c(N)ncc3ccccc23)cc1            2.58
2  CC(=O)Nc1ncc2ccccc2c1-c1ccc(NC(=O)CN(CCCl)CCCl)cc1            3.87

---

test system: Mus musculus; assay: Toxicity in mouse allografted with mouse L1210 cells at 25 to 400 mg/kg, ip; format: organism-based; parameters: dose 25-400 mg/kg, route intraperitoneal; conditions: in vivo
Observation type: Activity

>>> print(df.to_string())
                            compound_smiles  value_measured
0  CC(=O)Nc1ncc2ccccc2c1-c1ccc(N(CCCl)CCCl)cc1       Non-toxic
1  CC(=O)Nc1nc(Br)c2ccccc2c1-c1ccc(N(CCCl)CCCl)cc1.Cl       Non-toxic
2  CC(=O)Nc1ncc2ccccc2c1-c1ccc(NC(=O)CCN(CCCl)CCCl)cc1       Non-toxic
3  Nc1ncc2ccccc2c1-c1ccc(NC(=O)CN(CCCl)CCCl)cc1       Non-toxic
4  CC(=O)Nc1ncc2ccccc2c1-c1ccc(NC(=O)CN(CCCl)CCCl)cc1       Non-toxic
